IC50 values by entry
# SYSTEM: hM5 (Homo sapiens, UniProt P08912)
# Construct: expressed in transfected cells
# ASSAY_COMMENT: Calcium mobilization concentration-response (IC50 vs EC80 acetylcholine), CHO hM5
# Format: cell-based
# DETAILS: CELL LINE hM5; calcium mobilization, EC80 acetylcholine addition; read-out: IC50

Solved cases (5 shown):
Cc1sc(C#N)nc1C1=CCN(S(=O)(=O)c2cnn(C)c2C)CC1 ... > 10 µM
Cc1cc2nncn2cc1C1CCN(S(=O)(=O)c2ccc3c(c2)CCO3)CC1 ... > 10 µM
O=S(=O)(c1ccc2ncsc2c1)N1CCC(c2cc3[nH]ncc3cn2)CC1 ... > 10 µM
O=S(=O)(c1ccc2ncsc2c1)N1CCC(c2cc3cc[nH]c3cn2)CC1 ... > 10 µM
Cc1cc2ncnn2cc1C1CCN(S(=O)(=O)c2ccc3c(c2)CCO3)C1 (stereo not drawn) ... > 10 µM

In plain terms, CCc1cc2ncnn2cc1C1CCN(S(=O)(=O)c2cnc(C)n2C)CC1 has a documented IC50 of 0.227 µM

In plain terms, O=S(=O)(c1cc2c(cc1F)OCC2)N1CCC(c2cn3ncnc3cc2F)CC1 has a documented IC50 of > 10 µM

In plain terms, Cc1c(S(=O)(=O)N2CCC(c3ccc4ncnn4c3)CC2)cnn1C has a documented IC50 of 0.358 µM

In plain terms, Cc1cc2ncnn2cc1C1CCN(S(=O)(=O)c2cnn3c2CCCC3)CC1 has a documented IC50 of 0.006 µM

---

pIC50 values by entry
# SYSTEM: hM5 (Homo sapiens)
# Construct: expressed in transfected cells
# Sequence (P08912 1-532): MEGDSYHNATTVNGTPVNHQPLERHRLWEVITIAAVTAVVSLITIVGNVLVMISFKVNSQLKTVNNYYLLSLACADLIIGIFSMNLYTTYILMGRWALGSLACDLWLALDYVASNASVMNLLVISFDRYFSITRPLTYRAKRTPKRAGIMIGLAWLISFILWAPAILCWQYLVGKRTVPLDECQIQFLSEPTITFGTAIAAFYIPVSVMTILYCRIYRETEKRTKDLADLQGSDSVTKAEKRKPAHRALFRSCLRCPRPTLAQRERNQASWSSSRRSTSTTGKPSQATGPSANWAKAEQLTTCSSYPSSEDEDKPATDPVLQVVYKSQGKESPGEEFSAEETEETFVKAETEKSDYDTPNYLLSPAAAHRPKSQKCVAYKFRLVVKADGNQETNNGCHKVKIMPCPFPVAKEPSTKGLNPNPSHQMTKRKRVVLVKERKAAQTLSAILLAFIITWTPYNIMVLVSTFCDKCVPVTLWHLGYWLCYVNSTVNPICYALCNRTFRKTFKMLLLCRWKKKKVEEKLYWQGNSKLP
# ASSAY_COMMENT: Calcium mobilization concentration-response (IC50 vs EC80 acetylcholine), CHO hM5
# Format: cell-based
# DETAILS: CELL LINE hM5; vs EC80 acetylcholine; read-out: IC50
Please treat pIC50 as minus the base-10 logarithm of the molar concentration.

Solved cases (3 shown):
[2H]C1([2H])CC(c2cn3ncnc3cc2Cl)CC([2H])([2H])N1S(=O)(=O)c1nncn1C ... 7.01
Cc1cc2ncnn2cc1C1CCN(S(=O)(=O)c2cnn3ccccc23)CC1 ... 7.70
Cc1c(C2CCN(S(=O)(=O)c3nncn3C)CC2)cn2ncnc2c1F ... 5.77

Simply: Cc1cc(N(C)C)ncc1C1CCN(S(=O)(=O)c2cnc3sccn23)CC1 , hM5 (Homo sapiens), pIC50 = 7.80

Simply: Cc1cc2nccn2nc1N1CCN(S(=O)(=O)c2cnn3c2OCCC3)CC1 , hM5 (Homo sapiens), pIC50 = 7.23

---

# SYSTEM: hM5 (Homo sapiens)
# Construct: expressed in transfected cells
# ASSAY_COMMENT: Calcium mobilization concentration-response (IC50 vs EC80 acetylcholine), CHO hM5
# Assay type: cell-based
# DETAILS: CELL LINE hM5; vs EC80 acetylcholine; read-out: IC50
EXPERIMENTAL_ENDPOINT: IC50 (nM)
Answer with a number only, understood to be in nM.

In plain terms, [2H]C([2H])([2H])Oc1c(S(=O)(=O)N2CCC(c3cn4ncnc4cc3C(F)(F)F)CC2)cnn1C has a documented IC50 of 114

In plain terms, Cc1cc2ncnn2nc1C1CCN(S(=O)(=O)c2cnc3sccn23)CC1 has a documented IC50 of 133

In plain terms, COc1c(S(=O)(=O)N2CCC(c3cn4ncnc4cc3F)CC2)cnn1C has a documented IC50 of 137

---

# SYSTEM: hM5 (Homo sapiens, UniProt P08912)
# Construct: expressed in transfected cells
# ASSAY_COMMENT: Calcium mobilization concentration-response (IC50 vs EC80 acetylcholine), CHO hM5
# Assay type: cell-based
# DETAILS: CELL LINE hM5; calcium mobilization, EC80 acetylcholine addition; read-out: IC50
EXPERIMENTAL_ENDPOINT: IC50 (nM)
Answer with a number only, understood to be in nM.

Cc1cc2ncnn2cc1C1CCN(S(=O)(=O)c2cn(C)nc2C(F)(F)F)CC1 ... 2100
CCc1cc2ncnn2cc1C1CCN(S(=O)(=O)c2cnn(C)c2C(F)(F)F)CC1 ... 2600

Then there is this molecule:
Simply: Cc1ncc(S(=O)(=O)N2CCC(c3cn4ncnc4cc3C(F)(F)F)CC2)n1C , hM5 (Homo sapiens, UniProt P08912), IC50 = 234

---

# SYSTEM: hM5 (Homo sapiens, UniProt P08912)
# Construct: expressed in transfected cells
# Sequence (P08912 1-532): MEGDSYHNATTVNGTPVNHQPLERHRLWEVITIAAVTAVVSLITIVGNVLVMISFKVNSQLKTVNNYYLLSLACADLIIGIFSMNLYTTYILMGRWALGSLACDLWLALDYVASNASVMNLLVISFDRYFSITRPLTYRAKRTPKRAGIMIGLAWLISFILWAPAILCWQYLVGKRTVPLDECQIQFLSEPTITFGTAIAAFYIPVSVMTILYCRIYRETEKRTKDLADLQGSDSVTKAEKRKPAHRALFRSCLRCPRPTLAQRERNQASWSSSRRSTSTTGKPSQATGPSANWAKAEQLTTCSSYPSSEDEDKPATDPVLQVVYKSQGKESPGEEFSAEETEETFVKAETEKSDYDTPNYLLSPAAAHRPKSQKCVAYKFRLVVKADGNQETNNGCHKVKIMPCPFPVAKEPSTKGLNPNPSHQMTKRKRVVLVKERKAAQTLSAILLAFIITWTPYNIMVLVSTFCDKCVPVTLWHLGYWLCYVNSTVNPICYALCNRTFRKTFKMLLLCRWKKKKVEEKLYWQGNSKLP
# ASSAY_COMMENT: Calcium mobilization concentration-response (IC50 vs EC80 acetylcholine), CHO hM5
# Type: cell-based
# DETAILS: CELL LINE hM5; calcium mobilization, EC80 acetylcholine addition; read-out: IC50
EXPERIMENTAL_ENDPOINT: IC50

Solved cases (3 shown):
Cn1ncc(S(=O)(=O)N2CCC(c3cn4ncnc4cc3Cl)CC2)c1C(F)(F)F ... 0.052 µM
O=S(=O)(c1cnn2c1CCCC2)N1CC=C(c2cn3ncnc3cc2Cl)CC1 ... 0.005 µM
O=S(=O)(c1ccc2ncsc2c1)N1CCC(c2cn3ccccc3n2)CC1 ... > 10 µM

In plain terms, Cc1ncc(S(=O)(=O)N2CCC(c3nn4ncnc4cc3C)CC2)s1 has a documented IC50 of > 10 µM

In plain terms, [2H]C1([2H])Oc2ccc(S(=O)(=O)N3CCC(c4cn5nc(C)nc5cc4C)CC3)cc2C1([2H])[2H] has a documented IC50 of > 10 µM

In plain terms, Cc1cc2ncnn2cc1C1CCN(S(=O)(=O)c2ccccc2-c2ccno2)CC1 has a documented IC50 of > 10 µM

In plain terms, Cc1cc2nccn2nc1C1CCN(S(=O)(=O)c2cccnc2)CC1 has a documented IC50 of > 10 µM

In plain terms, Cc1cc2ncnn2cc1C1(O)CCN(S(=O)(=O)c2ccc3c(c2)CCO3)CC1 has a documented IC50 of > 10 µM

---

# SYSTEM: hM5 (Homo sapiens)
# Construct: expressed in transfected cells
# ASSAY_COMMENT: Calcium mobilization concentration-response (IC50 vs EC80 acetylcholine), CHO hM5
# Type: cell-based
# DETAILS: CELL LINE hM5; vs EC80 acetylcholine; read-out: IC50
EXPERIMENTAL_ENDPOINT: IC50

Solved cases (6 shown):
Cc1cc2ncnn2cc1C1CCN(S(=O)(=O)c2cnn(C)c2C2CCNCC2)CC1 ... > 10 µM
Cc1ncc(S(=O)(=O)N2CCC(c3ccncc3C)CC2)s1 ... > 10 µM
Cc1nc2n(c1C1CCN(S(=O)(=O)c3cnn(C)c3CC#N)CC1)CCCC2 ... > 10 µM
Cn1cnnc1S(=O)(=O)N1CCC(c2cn3ncnc3cc2C(F)(F)F)CC1 ... > 10 µM
Cc1nnc(S(=O)(=O)N2CCC(c3cn4ncnc4cc3Cl)CC2)[nH]1 ... > 10 µM
Cc1c(S(=O)(=O)N2CCC(c3cn4ncnc4cc3C(=O)O)CC2)cnn1C ... > 10 µM

In plain terms, COC1(c2cn3ncnc3cc2C)CCN(S(=O)(=O)c2cnn(C)c2C)CC1 has a documented IC50 of > 10 µM
